test_details: Solubility of compound (1) in ethanol/water (2:1)
Format: physicochemical
condition_label: ethanol/water (2:1), 22 °C, organic solvent or mixture, thermodynamic from solid, 22° C., stirred one hour
property_label: solubility at 1 h (µg/mL)
Form entry: value (µg/mL) — number only.

Prompt: Give solubility at 1 h for the following compound: CCCc1c(SCCCOc2ccc(C(C)=O)c(OCCCC(=O)O)c2CCC)ccc(C(C)=O)c1O [Form V]
Response: 6700

###

test_details: Solubility of crystalline polymorphs in ether
Type: physicochemical
condition_label: ether, organic solvent or mixture
property_label: solubility (mg/mL)
State just the number; it will be interpreted in mg/mL.

Prompt: Return solubility (reported value) for this molecule: CCCc1c(SCCCOc2ccc(C(C)=O)c(OCCCC(=O)O)c2CCC)ccc(C(C)=O)c1O [Form II]
Response: 40.5
